Target: Neu5Ac(a2-3)Gal(b1-3)GlcNAc(b1-4)Gal(b1-4)Glc
Assay: glycan array binding signal (z-score within array); higher = stronger binding
Conditions: glycan notation: IUPAC condensed, linker removed
The entries come from a sample that favours the strongest signals as a whole.
reported-metric: glycan array binding signal (z-score)
Just the number.

The reported value for UDA (Urtica dioica), P11218 (protein) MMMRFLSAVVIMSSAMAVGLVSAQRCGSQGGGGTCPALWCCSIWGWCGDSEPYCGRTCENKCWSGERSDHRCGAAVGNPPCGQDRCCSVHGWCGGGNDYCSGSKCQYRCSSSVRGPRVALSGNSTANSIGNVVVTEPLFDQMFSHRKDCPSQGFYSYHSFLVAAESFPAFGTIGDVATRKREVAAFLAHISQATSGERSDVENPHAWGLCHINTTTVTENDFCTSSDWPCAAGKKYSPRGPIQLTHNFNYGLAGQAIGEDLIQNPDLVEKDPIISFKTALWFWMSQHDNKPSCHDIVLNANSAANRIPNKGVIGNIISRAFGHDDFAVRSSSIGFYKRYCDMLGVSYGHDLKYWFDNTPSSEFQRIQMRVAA in terms of glycan array binding signal (z-score) is -0.174
